Tested on: C. elegans host defense pathway genes
test name: nanoString expression of 115 immune- and stress-responsive genes
details: 100 μM LK molecules, 16 h
measure name: F37B12.2 gcs-1 expression, induction (fold)
Write the value in fold as a bare number.

Entry O=c1cc(CNc2ccc(Br)cc2)nc2sccn12 [LK56] ; F37B12.2 gcs-1 expression, induction = 1.20

Per the record, CNC(=O)Oc1c(Br)cc2sc(=O)oc2c1Br [LK34] has F37B12.2 gcs-1 expression, induction of 4.32

For reference, reported F37B12.2 gcs-1 expression, induction for CN(C)/N=N/c1ccc(-c2cn(Cc3ccccc3)cn2)cc1 [LK38] stands at 1.21

Looking up Cc1cc(C2CCCCC2)n(O)c(=O)c1 [Ciclopirox, reference compound] , I see its F37B12.2 gcs-1 expression, induction listed as 1.30

Recorded F37B12.2 gcs-1 expression, induction (compound CCN(CC)/N=N/c1ccc(C(=O)O)cc1 [LK35] ): 12.12

Noted for COC(=O)/C=C/C(=O)Nc1ccccc1 [LK32] : its F37B12.2 gcs-1 expression, induction reads 7.02
